target: OCT3 (Homo sapiens); assay: Stereoselective uptake into OCT3-overexpressing HEK293 cells; conditions: OCT3; ratio between enantiomers, given as for (R) or for 1 (first-eluting);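 note: intracellular accumulation in HEK293 cells measured by chiral HPLC-MS/MS after a 2 min substrate exposure at 37 °C, uptake normalized to total protein (bicinchoninic acid assay)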
Sequence (O75751 whole entry): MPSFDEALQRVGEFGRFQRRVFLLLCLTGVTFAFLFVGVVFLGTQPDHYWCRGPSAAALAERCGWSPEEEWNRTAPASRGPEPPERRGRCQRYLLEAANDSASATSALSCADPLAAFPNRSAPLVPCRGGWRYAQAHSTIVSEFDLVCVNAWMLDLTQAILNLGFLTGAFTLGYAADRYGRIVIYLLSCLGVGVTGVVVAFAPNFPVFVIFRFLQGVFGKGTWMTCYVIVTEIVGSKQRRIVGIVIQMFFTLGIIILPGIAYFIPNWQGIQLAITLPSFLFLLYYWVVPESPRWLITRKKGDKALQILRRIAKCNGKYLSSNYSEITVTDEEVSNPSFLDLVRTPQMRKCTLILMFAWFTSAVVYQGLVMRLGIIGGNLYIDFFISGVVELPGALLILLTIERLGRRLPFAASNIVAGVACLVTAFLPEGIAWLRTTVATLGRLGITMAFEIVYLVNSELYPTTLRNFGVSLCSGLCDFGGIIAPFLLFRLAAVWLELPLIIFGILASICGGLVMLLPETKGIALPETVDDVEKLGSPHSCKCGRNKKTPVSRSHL
measure-name: Stereoselectivity Km (fold)
Give a bare numeral; the unit fold is implied.

Note down Stereoselectivity Km recorded for COc1cc(C(O)CN)ccc1O (single isomer, unassigned) [Normetanephrine-1, Normetanephrine] 1.22

Note down Stereoselectivity Km recorded for NC[C@H](O)c1ccccc1 [(R)-Bisnorephedrine] 1.08

Note down Stereoselectivity Km recorded for CNC[C@H](O)c1ccc(O)cc1 [(R)-Synephrine] 1.11

Note down Stereoselectivity Km recorded for NCC(O)c1cccc(O)c1 (single isomer, unassigned) [Norphenylephrine-1, Norphenylephrine] 1.17

Note down Stereoselectivity Km recorded for NCC(O)c1cccc(O)c1 (single isomer, unassigned) [Norphenylephrine-2, Norphenylephrine] 1.17

Note down Stereoselectivity Km recorded for CNCC(O)c1ccc(O)c(OC)c1 (single isomer, unassigned) [Metanephrine-1, Metanephrine] 1.19
